Reported furin cleavage Z-score by item:
# TEST TARGET: furin, P09958;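 also: purified furin at 1:10 enzyme:substrate in 50 mM HEPES pH 7.5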
# Sequence (P09958 whole entry): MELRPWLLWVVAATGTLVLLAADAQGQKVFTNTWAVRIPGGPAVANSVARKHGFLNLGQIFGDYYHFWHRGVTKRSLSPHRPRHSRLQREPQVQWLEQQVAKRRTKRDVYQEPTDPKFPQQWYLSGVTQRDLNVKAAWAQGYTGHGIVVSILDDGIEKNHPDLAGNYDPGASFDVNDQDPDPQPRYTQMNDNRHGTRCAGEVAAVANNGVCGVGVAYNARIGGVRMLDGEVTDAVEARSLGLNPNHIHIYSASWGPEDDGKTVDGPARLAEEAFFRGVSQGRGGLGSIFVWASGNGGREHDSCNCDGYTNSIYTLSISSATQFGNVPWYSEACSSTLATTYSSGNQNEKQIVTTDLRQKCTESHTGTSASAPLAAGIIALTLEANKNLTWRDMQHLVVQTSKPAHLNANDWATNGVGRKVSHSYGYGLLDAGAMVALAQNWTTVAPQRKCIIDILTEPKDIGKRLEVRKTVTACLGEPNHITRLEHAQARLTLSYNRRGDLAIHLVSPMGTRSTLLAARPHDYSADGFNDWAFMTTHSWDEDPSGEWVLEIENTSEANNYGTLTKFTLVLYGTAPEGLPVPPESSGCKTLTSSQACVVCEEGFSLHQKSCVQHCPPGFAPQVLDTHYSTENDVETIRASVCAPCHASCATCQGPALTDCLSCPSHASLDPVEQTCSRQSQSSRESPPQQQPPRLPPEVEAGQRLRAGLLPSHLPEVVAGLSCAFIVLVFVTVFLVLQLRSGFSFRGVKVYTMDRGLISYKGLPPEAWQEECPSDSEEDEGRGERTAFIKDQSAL
# EXPERIMENT DESCRIPTION: furin cleavage Z-score vs untreated control; higher = more cleavage, active = 3.5 or more, inactive = 1 or less, 8 variable residues between constant flanks
# CONDITION NOTES: 15 min
This is one part of the list. The true hit rate is not given.

The examples below pair each entry with its known result.
{"columns": ["BIOPOLYMER SEQUENCE", "PROPERTY NAME", "ENDPOINT VALUE"],
 "data": [
  ["CAILQRLKRIAGNASASA [FS-1346]", "furin cleavage Z-score", "3.86 (active)"],
  ["CAHGLVSFLVAGNASASA [HC542]", "furin cleavage Z-score", "-0.401 (inactive)"],
  ["CARMKRILQRAGNASASA [FS-2720]", "furin cleavage Z-score", 1.31],
  ["CARMKRESLMAGNASASA [FS-3228]", "furin cleavage Z-score", "10.5 (active)"]
]}

# input What measured furin cleavage Z-score goes with CANPQRFDRIAGNASASA [FS-1039] ?
# output -0.196 (inactive)

# input Need furin cleavage Z-score of CAQNERSYRIAGNASASA [FS-183] , thanks.
# output 1.02

# input # furin cleavage Z-score lookup, item CARMKRVWDRAGNASASA [FS-2722]
# output -0.324 (inactive)
